The measurements presented in this section are drawn from paper PMC9913351.

- TARGET_DESC: bovine serum albumin BSA (Bos taurus)
- Construct: purchased Sigma Aldrich
- Sequence (P02769 25-607): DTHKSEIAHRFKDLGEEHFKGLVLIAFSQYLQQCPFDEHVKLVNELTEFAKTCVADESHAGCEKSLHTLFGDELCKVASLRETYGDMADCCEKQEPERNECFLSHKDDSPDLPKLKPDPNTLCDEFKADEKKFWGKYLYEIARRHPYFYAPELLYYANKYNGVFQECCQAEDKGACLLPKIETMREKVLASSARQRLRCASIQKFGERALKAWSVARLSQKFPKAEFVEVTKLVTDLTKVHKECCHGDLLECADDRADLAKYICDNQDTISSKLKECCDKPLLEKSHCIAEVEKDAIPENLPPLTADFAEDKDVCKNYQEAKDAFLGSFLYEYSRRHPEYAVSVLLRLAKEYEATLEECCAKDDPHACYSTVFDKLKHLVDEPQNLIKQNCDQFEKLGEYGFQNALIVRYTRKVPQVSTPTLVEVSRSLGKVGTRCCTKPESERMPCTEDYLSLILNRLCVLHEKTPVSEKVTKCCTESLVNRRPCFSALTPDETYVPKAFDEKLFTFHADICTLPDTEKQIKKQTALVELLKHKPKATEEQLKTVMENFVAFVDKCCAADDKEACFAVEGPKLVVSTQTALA
- MEASUREMENT_NOTES: NP TLC on silica gel plates impregnated with bovine serum albumin
- Assay type: in vitro ADME
- COND: Rf from BSA-modified NP plate / Rf from clear one (control)
QUANTITY_NAME: NP/C
Give the figure by itself; no unit, no explanation.

Solved cases below.
COMPOUND: CCCCN1CCCCC1C(=O)Nc1c(C)cccc1C (centres unmarked)
MEAS_VALUE: 1.00
--
COMPOUND: CC[C@@H](C(N)=O)N1CCCC1=O
MEAS_VALUE: 1.00
--
COMPOUND: CN(C)CCC=C1c2ccccc2CCc2ccccc21
MEAS_VALUE: 0.97
--
COMPOUND: CN(C)CCC=C1c2ccccc2COc2ccccc21 [doxepin]
MEAS_VALUE: 1.03
--
COMPOUND: O=C(c1ccccc1)c1ccc2n1CCC2C(=O)O (centres unmarked)
MEAS_VALUE: 0.99
--
COMPOUND: CCC(C)n1ncn(-c2ccc(N3CCN(c4ccc(OCC5COC(Cn6cncn6)(c6ccc(Cl)cc6Cl)O5)cc4)CC3)cc2)c1=O (centres unmarked)
MEAS_VALUE: 1.01
--
COMPOUND: CCC1(c2ccccc2)C(=O)NCNC1=O
MEAS_VALUE: 1.03
--
COMPOUND: CCOC(=O)C1=C(C)NC(C)=C(C(=O)OC)C1c1cccc([N+](=O)[O-])c1 (centres unmarked)
MEAS_VALUE: 1.00

// returns reported NP/C for input `CCC[C@@H]1C[C@@H](C(=O)N[C@@H]([C@H]2O[C@H](SC)[C@H](O)[C@@H](O)[C@H]2O)[C@@H](C)O)N(C)C1`
1.00

// returns reported NP/C for input `CC[C@@H](CO)NCCN[C@@H](CC)CO`
1.11

// returns reported NP/C for input CC(N)C12CC3CC(CC(C3)C1)C2 (centres unmarked)
1.00
